# Rat A2A AR (Rattus norvegicus, UniProt P30543): Ki values follow
# Sequence (P30543 whole entry): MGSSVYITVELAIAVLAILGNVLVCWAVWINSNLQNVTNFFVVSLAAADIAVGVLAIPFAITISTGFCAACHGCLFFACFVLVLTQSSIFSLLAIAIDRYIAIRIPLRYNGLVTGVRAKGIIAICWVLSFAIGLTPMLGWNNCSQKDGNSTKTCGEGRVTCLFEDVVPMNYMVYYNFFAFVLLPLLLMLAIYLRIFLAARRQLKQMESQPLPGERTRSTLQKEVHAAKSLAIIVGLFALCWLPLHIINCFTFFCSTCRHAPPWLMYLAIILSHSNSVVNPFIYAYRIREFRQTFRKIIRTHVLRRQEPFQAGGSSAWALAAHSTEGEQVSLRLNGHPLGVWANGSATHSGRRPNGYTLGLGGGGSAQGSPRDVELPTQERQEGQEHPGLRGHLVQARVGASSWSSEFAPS
Write the number in nM without appending the unit.

Req: Find the recorded Ki belonging to C#CCn1c(=O)c2c(nc(C#Cc3ccc(OC)c(OC)c3)n2C)n(CCC#N)c1=O [drawing 501] and report it.
Resp: 76.4

Req: Param item: C#CCn1c(=O)c2c(nc(C#Cc3ccc(OC)c(OC)c3)n2C)n(CC(=O)CC)c1=O
Resp: 91.7

Req: Please do the same for C#CCn1c(=O)c2c(nc(C#Cc3cccc(OC)c3)n2C)n(CC(O)CO)c1=O (stereo not shown) [drawing 492] as well.
Resp: 69.8

Req: Also need C#CCn1c(=O)c2c(nc(C#Cc3ccc(OC)c(OC)c3)n2C)n(Cc2cccs2)c1=O [drawing 520] , thanks.
Resp: 103

* * *

Property: Ki; scope: individual compounds
Target: Rat A1 AR (Rattus norvegicus)
Sequence (P25099 1-326): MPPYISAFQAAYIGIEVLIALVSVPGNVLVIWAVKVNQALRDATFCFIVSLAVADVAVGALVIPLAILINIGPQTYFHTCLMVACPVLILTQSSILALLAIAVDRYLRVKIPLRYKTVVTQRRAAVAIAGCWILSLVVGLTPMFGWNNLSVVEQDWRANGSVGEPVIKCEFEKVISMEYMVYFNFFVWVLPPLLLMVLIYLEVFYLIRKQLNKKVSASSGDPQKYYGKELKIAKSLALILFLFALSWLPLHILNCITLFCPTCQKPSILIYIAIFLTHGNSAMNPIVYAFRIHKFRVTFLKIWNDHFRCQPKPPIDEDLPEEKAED

Req: Look up Ki for this compound: C#CCn1c(=O)c2c(nc(C#Cc3ccc(OC)c(OC)c3)n2C)n(Cc2ccsc2)c1=O
Resp: > 1 µM

Req: Entry C#CCn1c(=O)c2c(nc(C#Cc3ccc(OC)c(OC)c3)n2C)n(Cc2ccoc2)c1=O [drawing 509] please
Resp: > 1 µM

Req: Same again, this time with C#CCn1c(=O)c2c(nc(C#Cc3ccc(OC)c(OC)c3)n2C)n(CC(C)=O)c1=O [drawing 525]
Resp: > 1 µM
